# assay method text: Linearity after single s.c. dose in rat
# Assay type: in vivo
# assay setup: Wistar, plasma, sc; rat, 1 mg/kg s.c.; read-out: T½ (converted)
measured metric: half-life (min)
Return type: number; implicit unit min.

Enquiry: What measured half-life goes with `O=c1ccc2ccc(O[C@@H]3C[C@H]4CC[C@@H](C3)N4)cc2o1` ?
Return: 40.2

----------
# assay method text: Bioavailability study in mouse
# Assay type: in vivo
# assay setup: female, NMRI, plasma, iv, 10 mg/kg, 10 mg/kg i.v., read-out: AUC(0-∞) i.v.
# Excerpt: Compound (I) is absorbed quickly.
measured metric: AUC(0-inf)
Please answer using a numeric value trailed by its unit.

Enquiry: What measured AUC(0-inf) goes with `O=c1ccc2ccc(O[C@@H]3C[C@H]4CC[C@@H](C3)N4)cc2o1` ?
Return: 2310 ng·h/mL
